# Ki values compiled below
Target: D(1A) dopamine receptor (Rattus norvegicus, UniProt P18901)
Sequence (P18901 whole entry): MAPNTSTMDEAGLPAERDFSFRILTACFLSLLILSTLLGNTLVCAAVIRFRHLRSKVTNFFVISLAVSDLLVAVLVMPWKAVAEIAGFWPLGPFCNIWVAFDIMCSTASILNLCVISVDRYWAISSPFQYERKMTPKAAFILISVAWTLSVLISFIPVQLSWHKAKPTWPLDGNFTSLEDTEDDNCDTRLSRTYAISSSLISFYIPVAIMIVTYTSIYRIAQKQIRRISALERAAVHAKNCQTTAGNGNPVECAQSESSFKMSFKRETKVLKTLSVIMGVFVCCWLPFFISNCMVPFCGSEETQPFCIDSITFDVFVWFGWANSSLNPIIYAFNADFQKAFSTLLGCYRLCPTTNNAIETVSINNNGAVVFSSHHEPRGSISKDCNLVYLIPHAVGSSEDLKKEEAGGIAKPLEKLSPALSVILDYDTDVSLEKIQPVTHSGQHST
Assay: Displacement of [3H]SCH-23390 from rat dopamine D1 receptor
Note: unit µM is implicit; provide only the numeric part.

So for COc1cc2c(cc1OC)-c1c(OC)c(OC)c(I)c3c1[C@H](C2)N(C)CC3 , the logged Ki turned out to be 2.11

Value of measured Ki for the entry CCN1CCc2cc(OC)cc3c2C1Cc1ccccc1C3 (stereo unspecified) : 6.6

// field: Ki; key: COc1cc2c(cc1OC)-c1c(OC)c(OC)c(Br)c3c1[C@H](C2)N(C)CC3 ; value = 0.52

====

Entries and their Ki values follow.
Molecular target: D(1A) dopamine receptor (Rattus norvegicus, UniProt P18901)
Test: Displacement of [3H]SCH-23390 from rat dopamine D1 receptor

# annotated cases, reported Ki shown
compound="CCCN1CCc2cc(OC)c(OC)c3c2C1Cc1ccccc1C3 (stereo not drawn)" testedon="D(1A) dopamine receptor (Rattus norvegicus, UniProt P18901)" endpointlabel=Ki assayvalue="> 70 µM"
compound=CCCN1CCc2cccc3c2[C@H]1Cc1cccc(OC(C)=O)c1-3 testedon="D(1A) dopamine receptor (Rattus norvegicus, UniProt P18901)" endpointlabel=Ki assayvalue="> 10 µM"

// next item, Ki requested
Briefly, Ki measured for CCCN1CCc2cccc3c2C1Cc1cc(O)ccc1O3 (stereo not drawn) : > 10 µM
